Experiment: protein stability index of a GFP-peptide fusion (yeast GPS) (PSI 1-4); higher = more stable; sorted into four equal gates, so the index is relative within each strain
Details: ubr1∆
Catalogue of protein stability index values
Output spec: single numeric token, no unit.

> print(dat)
                     monomer.sequence  reported
 1           HEKIEDEDEDNDLDEDD [RPN4]      3.45
 2          KDLETLYNKIWTEASSS [ECM29]      2.51
 3           ALPHVEINQVSLALVIR [RGR1]      2.71
 4           FSMGHIRSSSVSLVAEA [MED4]      1.69
 5  TNELWARLAILKERAKN [YGR119C/NUP57]      3.58
 6          VGACTDEEMTISQKLHD [RRP43]      3.12
 7           TTKMWPTNCPLRQFKTC [BRR2]      2.34
 8          QNNTTKFHSELQYLDKH [RPN12]      3.17
 9           IYVHVRRSTPFSKIAEY [ESC2]      2.52
10          HGMDFTTDKLRSMVRKW [RPS1A]       2.9

For LAYAVLGIALIALGEDI [RPN1] , what is its reported protein stability index? 2.33

Endpoint output: protein stability index of QIKEIKEVIELPVKHPE [RPT6] . Value? 3.2

Item under review: NGKEVPLAKIYLEENKS [MED1] . Reported protein stability index? 3.21

# get_value(readout='protein stability index', item= YMEPFDLDLNEQVRKMY [NSL1] ) 2.46

Fill in the blank: the reported protein stability index of EIEQVCKQVHDKLTSIQ [MED7] is ____. 2.89

Tell me the measured protein stability index of DSIYTKPVKVALIFIFF [YJL039C/NUP192] , please. 1.68

For the sequence shown here, DEVGRRSMLTVVRNMLA [YCG1] , give the reported protein stability index. 1.52

---

Measured protein stability index by item
Assay: protein stability index of a GFP-peptide fusion (yeast GPS) (PSI 1-4); higher = more stable; sorted into four equal gates, so the index is relative within each strain
Details: ubr1∆
Reply briefly: the number, and no unit.

> print(dat)
           monomer.sequence  reported
1  SSRFIKGGSLYGLGLIY [RPN2]      1.99

// protein stability index lookup, key: NNNGNPGTTSTGNNNNI [GAL11] 3.23

If you can, please state the reported protein stability index value of FYSTNSQYFKFKNDFNS [RPN9] . 2.5

Which measured protein stability index value corresponds to AEEVRNFALTTLIDLVK [ECM29] ? 2

---

Assay: protein stability index of a GFP-peptide fusion (yeast GPS) (PSI 1-4); higher = more stable; sorted into four equal gates, so the index is relative within each strain
Details: ubr1∆
measured.quantity: protein stability index
Lab note: write the figure by itself, no unit.

> print(dat)
                   monomer.sequence  reported
1          PLKYTKLIAAAEDGSRS [SNF6]      1.57
2  ELKNELAKTKENYDAKI [YIL149C/MLP2]      3.08
3          YVAIVVDPLKSLEDKIL [RRI1]      1.68
4         AIPNPEDVVAISSRTYG [RPS0B]      3.09
5         QKSSKENIENEEYVINL [ECM29]      3.02
6          KQEIREAVELPLVQADL [RPT3]      2.96

So what's the measured protein stability index for this one? TQVYKLGLAKSVHHARV [RPS9A] 1.24

Where do the numbers come from? From the supplement of paper PMC9732359.
